- test.description: TOX21_p53_BLA_p4_viability: Viability Assessment in the Tox21 HCT-116 p53 Agonism Beta-lactamase Assay, Phase 4 (AID 2283597);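 note: hits lower the luminescence signal meaning cytotoxicity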
Inconclusive results are not listed. Active and inactive are the calls of the source. Rule for the calls: active = hit-call score of the fitted dose curve at least 0.9, where 1 is the maximum; inconclusive = response in the unintended direction; inactive = score below 0.9.
Tick one outcome: active, inactive

For "CS(=O)(=O)Nc1ccc([N+](=O)[O-])cc1Oc1ccccc1" , which call appears in the assay record?
inactive

###

- assay.target: Aryl hydrocarbon receptor (Homo sapiens)
- test.description: ATG_Ahr_CIS: Attagene CIS-FACTORIAL HepG2 Assay for human Aryl Hydrocarbon Receptor (Ahr) (AID 2282930)
- condition.context: HepG2 AhR cis-factorial reporter transcription; actives raise or lower the signal
The source made the active and inactive calls. How the source made its calls: active means hit-call score of the fitted dose curve at least 0.9, where 1 is the maximum; inactive means score below 0.9.
observation.type: AC50

Below, 9 compounds whose answers are already recorded.
> print(dat)
                                   compound      assay.result
1  C[C@H]1C[C@H]2[C@@H]3CCC4=CC(=O)C=C[C@]4(C)[C@@]3(F)[C@@H](O)C[C@]2(C)[C@@]1(O)C(=O)CO  44.6 µM (active)
2  CC1(C)S[C@@H]2[C@H](NC(=O)[C@H](N)c3ccccc3)C(=O)N2[C@H]1C(=O)O          inactive
3       Nc1ccc(S(=O)(=O)Nc2cnc3ccccc3n2)cc1          inactive
4                                 Cc1cccnc1          inactive
5                     CC/C=C\CC1=C(C)CCC1=O          inactive
6  CC(C)(C)NC(=O)[C@@H]1CN(Cc2cccnc2)CCN1C[C@@H](O)C[C@@H](Cc1ccccc1)C(=O)N[C@H]1c2ccccc2C[C@H]1O  57.2 µM (active)
7                  CCCN[C@H]1CCc2nc(N)sc2C1          inactive
8  CC1=NN(c2cc(Cl)c(S(=O)(=O)O)cc2Cl)C(=O)C1N=Nc1ccc(S(=O)(=O)O)cc1 (stereo not given)          inactive
9         CN(C)CCCN1c2ccccc2CCc2ccc(Cl)cc21          inactive

Form field - read-out: AC50; system: Aryl hydrocarbon receptor (Homo sapiens); submitted item: O=C(C1CCCCC1)N1CC(=O)N2CCc3ccccc3C2C1 (stereo not given)
27.8 µM (active)
